Answer each item with its documented IC50 at 24 h.
- method notes: Cell viability assay (MTT)
- Assay type: cell-based, human
- test context: human, MCF-10A breast epithelial cells; MCF10A, 24 h; read-out: Cytotoxicity IC50
One number for each entry, in µM.

compound: COC1=C(c2c[nH]c3ccccc23)C(=O)C(CC=C(C)C)=C(c2c[nH]c3ccccc23)C1=O [Compound 6, kumbicin D]
IC50 at 24 h, µM: 65.7

Please give IC50 at 24 h, item by item, for the list that follows.
1. Cc1c(C)c(O)c2c(c1C)C(C)C(=O)OC2=O (centres unmarked) [Compound 4, sclerin]
2. C=C(C)C1CCC23C(O)CCC(C)C2(C)CCC(C)C3C1c1c[nH]c2ccccc12 (centres unmarked) [Compound 5, 10,23-dihydro-24,25-dehydroaflavinine]

Resp:
1: 93.4; 2: 61.5
